Tested on: MDA-MB-435 melanoma
Assay: NCI-60 one-dose screen, 48 h
Settings: 10 µM unless noted
Compounds without any hit were thinned out: in the full panel of roughly 83,000, 20% have a hit. Calls of active or inactive are those of the source. How the source made its calls: active means growth percent below 10; inactive means the rest.
// one of active, inactive, no free text

Past entries and their recorded results:
COc1cc(/C(C#N)=C/c2nc3c(N4CCOCC4)nc(Cl)nc3n2C)cc(OC)c1OC :: active
N[C@@H](CC/[N+]([O-])=N/O)C(=O)O :: inactive
Cc1ccc(F)cc1NC(=O)c1cc(Cl)ccc1Nc1ccccc1 :: inactive
Nc1ccccc1-c1ccc(-c2ccc(Cl)cc2)c2c1[nH]c1ccccc12 :: inactive
Cc1ccc2[nH]c(=O)cc(-n3nncc3Cn3c4ccccc4c4ccccc43)c2c1 :: inactive
O=C(/C=C/c1ccccc1)c1ccc(Nc2nc(NCCO)nc(Nc3ccc(Cl)cc3)n2)cc1 :: inactive

Query :: # lookup: test call for `O=C(Nc1ccc(Br)cc1F)c1cc(F)ccc1O`
Result :: active

Query :: # lookup: test call for `COC(=O)c1c2c(c(C)[n+]([O-])c1C)C(=O)C(NCc1ccc(Br)cc1)=CC2=O`
Result :: active

Query :: # lookup: test call for `c1ccc2cc3c(Nc4ccc(N5CCOCC5)cc4)ccnc3cc2c1`
Result :: inactive

Query :: # lookup: test call for `N#C/C(=C\c1c(-c2ccccc2)[nH]c2ccccc12)S(=O)(=O)c1ccccc1`
Result :: active

Query :: # lookup: test call for `Cc1ccc2cccc(Oc3ccc(Nc4ncnc5onc(-c6ccccc6)c45)cc3)c2n1`
Result :: inactive

Query :: # lookup: test call for Clc1ccc(-c2nnc(COc3ccc(C4=NNC(c5ccco5)C4)cc3)o2)cc1 (stereo not given)
Result :: inactive

Query :: # lookup: test call for `O=C(Nc1ccc(N2CCNCC2)cc1)c1[nH]ncc1Nc1cc(C2CC2)ncn1`
Result :: inactive

Query :: # lookup: test call for `CC1=C(C(=O)OCC2CCN(C(=O)OC(C)(C)C)CC2)[C@H](c2cccc(C#N)c2)C2=C(CC(C)(C)CC2=O)N1`
Result :: inactive

Query :: # lookup: test call for `COc1ccc(/C=C/C(=O)c2ccc(Nc3nc(NCCO)nc(Nc4ccc(Cl)cc4)n3)cc2)cc1`
Result :: inactive

Query :: # lookup: test call for CCN1C(=O)N(CC)C2Nn3c(s/c(=C\c4ccccc4F)c3=O)=NC21 (stereo not given)
Result :: active

Query :: # lookup: test call for COC(=O)C1(C)COP(=O)(Nc2ccc(OC)cc2)OC1 (stereo not given)
Result :: inactive

Query :: # lookup: test call for CCCCCCC(O)(c1ccc(F)cc1)C(CN1CCOCC1)c1ccccc1 (stereo not given)
Result :: inactive

Query :: # lookup: test call for `O=c1oc2ccc(-c3ccc(F)cc3F)cc2c(=O)n1-c1cccc(C(F)(F)F)c1`
Result :: active

Query :: # lookup: test call for COc1ccccc1N1CCN(C(CNS(=O)(=O)c2ccc(Cl)cc2)c2cccnc2)CC1 (stereo not given)
Result :: inactive

* * *

Test system: UO-31 renal
Assay: NCI-60 one-dose screen, 48 h
Conditions: 10 µM unless noted
About 83,000 compounds went through this panel and 20% of them were active in at least one assay; those are over-represented in the sample as a whole. Calls of active or inactive are those of the source. Rule for the calls: active = growth percent below 10; inactive = the rest.
// one of 1 (yes) for active, 0 (no) for inactive, no free text

Past entries and their recorded results:
O=c1c2cccc(F)c2sc2c(N3CCNCC3)nc3ccccc3c12 :: 0 (no)
CCN(CCO)CCNc1ccc(C)c2sc3cc(Cl)ccc3c(=O)c12 :: 0 (no)
NC(CCc1nc2ccccc2c(=O)[nH]1)C(=O)O (configuration not stated) :: 0 (no)
COc1cc2nc(NC3CCC3)nc(NC3CCN(C(C)C)CC3)c2cc1OC :: 0 (no)
O=C(Nc1ccc(F)cc1F)c1cc(Br)ccc1O :: 1 (yes)

Query :: # lookup: test call for `CNCCNc1nc2ccccc2c2c(=O)c3cc(OC)ccc3sc12`
Result :: 0 (no)

Query :: # lookup: test call for `Cc1cc2c(c(C)c1Cl)C(=O)/C(=C/c1ccco1)O2`
Result :: 0 (no)

Query :: # lookup: test call for `O=c1cc(-c2ccccc2)oc2cc(OCc3cn(Cc4ccc(F)cc4)nn3)cc(OCc3cn(Cc4ccc(F)cc4)nn3)c12`
Result :: 1 (yes)

* * *

Tested on: PC-3 prostate
Test: NCI-60 one-dose screen, 48 h (100 = growth as untreated, 0 = no growth, -100 = all killed)
Conditions: 10 µM unless noted
About 83,000 compounds went through this panel and 20% of them were active in at least one assay; those are over-represented in the sample as a whole.
PARAMETER MEASURED: growth (%)
Numbers only, in %.

Past entries and their recorded results:
Cc1ccc(S(=O)(=O)c2c(COC(=O)c3cccc(C)c3)c(-c3ccccc3)nn2C)cc1 :: 48.5
O=c1c2cc(F)ccc2sc2c(Nc3ccncc3)nc3ccccc3c12 :: -10.7
O=C1OC(c2ccccc2)(c2ccccc2)c2ccsc21 :: 101
O=C(Nc1ccc(Cl)cc1)N1CCN(c2ccc3nncn3n2)CC1 :: 16.4
COc1ccc2occ(C3=C(c4c[nH]c5ccccc45)C(=O)NC3=O)c2c1 :: 62.7

For each of the items listed, what is its growth?
1. COc1cc2cc3c(=O)n4c(cc5cc(OC)ncc54)c(=O)n3c2cn1
2. COc1ccc(-c2cn[nH]c2-c2cc(OC)c(OC)c(OC)c2)cc1OCc1ccccc1
3. CC1=C(C(=O)OCC2CCN(C(=O)OC(C)(C)C)CC2)[C@H](c2cccc(C#N)c2)C2=C(CC(C)(C)CC2=O)N1
4. CCOC(=O)c1cc2c(n1Cc1ccccc1OC)-c1oncc1CCC2
5. COC(=O)c1cc2c(n1Cc1ccccc1)-c1oncc1CCC2

Result ::
1. 97.2
2. 22.4
3. 59.4
4. 30.8
5. 77.4

* * *

Tested on: RPMI-8226 leukemia
Experiment: NCI-60 one-dose screen, 48 h
Settings: 10 µM unless noted
Protocol: Growth inhibition of the RPMI-8226 human tumor cell line is measured as a screen for anti-cancer activity. Cells are grown in 96 well plates and exposed to the test compound for 48 hours. Compounds are tested at a single concentration, which is 10^-5 M for most compounds. The reported endpoint is percent growth (GI% or GIPRCNT), where numbers from 0 - 100% represent growth inhibition, and numbers from -100% - 0 represent cell death. For example, a value of 40 represents 60% growth inhibition. […]
The panel holds about 83,000 compounds, 20% with a hit somewhere; the sample as a whole holds those more often. Active and inactive are the calls of the source. Rule for the calls: active = growth percent below 10; inactive = the rest.
// one of class 1 = active, class 0 = inactive, no free text

Past entries and their recorded results:
COc1ccc(-c2cn[nH]c2-c2cc(OC)c(OC)c(OC)c2)cc1OCc1ccccc1 :: class 1
Cn1c(=O)n(C)c2cc(CNCCNc3ccnc4cc(Cl)ccc34)ccc21 :: class 0

We now examine a further compound.
Query :: # lookup: test call for `CCOC(=O)c1cnc2c(C)cccc2c1Nc1ccc(C(C)=O)cc1`
Result :: class 1

* * *

Tested on: DU-145 prostate
Assay: NCI-60 one-dose screen, 48 h
Conditions: 10 µM unless noted
Compounds without any hit were thinned out: in the full panel of roughly 83,000, 20% have a hit. Active and inactive are the calls of the source. Rule for the calls: active = growth percent below 10; inactive = the rest.
// one of active, inactive, no free text

Query :: # lookup: test call for `CCN1CCN(C(=S)SCC(=O)Nc2nc3ccc(C)cc3s2)CC1`
Result :: inactive

Query :: # lookup: test call for CN1C(=O)N(C)C2(c3ccccc3)OC(=S)NC12c1ccccc1 (stereo not drawn)
Result :: inactive

Query :: # lookup: test call for `CCCCCCc1cc2cc(-c3nc4ccccc4[nH]3)c(=Nc3ccccc3C)oc2cc1O`
Result :: inactive

Query :: # lookup: test call for `Cc1ccc2sc3c(NCCCNCCO)nc4ccccc4c3c(=O)c2c1`
Result :: active

Query :: # lookup: test call for `CCOC(=O)c1ccc(N=Cc2sc(=O)[nH]c2O)cc1`
Result :: inactive

Query :: # lookup: test call for `Cc1ccc(CN2CCC(C(=O)Nc3ccc(-c4cc5ccccc5[nH]4)cc3)CC2)o1`
Result :: inactive

Query :: # lookup: test call for COc1ccc(C2NCCc3c2[nH]c2ccccc32)cc1CN1CCN(c2ccc(F)cc2)CC1 (stereo not drawn)
Result :: inactive

Query :: # lookup: test call for `O=C(CN1C(=O)/C(=C\c2ccc(Cl)cc2)SC1=S)Nc1ncc(Cc2ccc(Cl)cc2)s1`
Result :: inactive

Query :: # lookup: test call for `O=c1c2cc(F)ccc2sc2c(NCCCNCCO)nc3ccc(Cl)cc3c12`
Result :: inactive

Query :: # lookup: test call for `COc1ccc(Br)c(/C=C2\SC(=Nc3ccc(O)cc3)NC2=O)c1`
Result :: inactive

Query :: # lookup: test call for `CC[C@@H](C)[C@H](NC(=O)Cn1cc(CNC(=O)[C@@H](NC(=O)OCc2ccccc2)C(C)C)nn1)C(=O)O`
Result :: inactive

Query :: # lookup: test call for `CCC(C)(C)C(=O)O[C@H]1C[C@@H](C)C=C2C=C[C@H](C)[C@H](CC[C@@H]3CC=CC(=O)O3)[C@H]21`
Result :: inactive

Query :: # lookup: test call for `COC(=O)/C(CCC=C(C)C)=C1\[C@@H](OC(C)=O)C[C@@]2(C)[C@H]1C[C@@H](O)[C@H]1[C@@]3(C)CC[C@H](NCCCNCCCCNCCCN)[C@@H](C)[C@@H]3CC[C@@]12C`
Result :: inactive

Query :: # lookup: test call for `C=C[C@@H]1CCC/C=C/[C@@H]2C[C@H](O)C[C@H]2[C@H](O)/C=C/C(=O)O1`
Result :: inactive

Query :: # lookup: test call for COc1ccc(C2=NN(/C=C3\SC(=O)NC3=Nc3ccc(F)cc3)C(c3ccc(F)cc3)C2)cc1 (stereo not drawn)
Result :: inactive

Query :: # lookup: test call for `COc1cc(/C=C2\CCC/C(=C\c3cc(CN4CCCCC4)c(O)c(OC)c3)C2=O)cc(CN2CCCCC2)c1O`
Result :: inactive

Query :: # lookup: test call for `O=C(NC(=S)Nc1cccc(NC(=S)NC(=O)c2ccccc2)c1)c1ccccc1`
Result :: inactive

Query :: # lookup: test call for `CN1CCN(Cc2ccc(C(=O)Nc3cncc(C#Cc4cnc(N)c5ccccc45)c3)cc2C(F)(F)F)CC1`
Result :: active

Provenance of the data: PubChem BioAssay (NCI)
